# target-or-system: UniProtKB Q92633
# Sequence (Q92633 whole entry): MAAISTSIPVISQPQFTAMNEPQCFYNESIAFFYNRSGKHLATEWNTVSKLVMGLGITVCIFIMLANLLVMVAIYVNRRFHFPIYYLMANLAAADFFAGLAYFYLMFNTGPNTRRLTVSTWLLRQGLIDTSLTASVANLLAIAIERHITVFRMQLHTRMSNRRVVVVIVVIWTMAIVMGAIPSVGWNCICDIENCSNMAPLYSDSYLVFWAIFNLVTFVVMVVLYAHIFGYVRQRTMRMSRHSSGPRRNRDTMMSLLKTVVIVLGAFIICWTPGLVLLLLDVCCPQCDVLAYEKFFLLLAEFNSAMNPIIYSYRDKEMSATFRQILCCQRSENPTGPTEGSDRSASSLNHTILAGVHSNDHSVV
# test-summary: In vitro functional assay of lysophosphatidic acid receptor 1 activity (calcium flux)
# Assay type: cell-based
# assay-context: B103 cells stably expressing human LPAR1; calcium flux (Fluo-4 NW) after lysophosphatidic acid (18:1) at EC80; 100 pM to 10 μM; read-out: LPAR1 IC50
pIC50: −log10 of the molar value.
endpoint-label: pIC50

Value of pIC50 reported for the compound "COc1ccc(NC(=O)N(c2ccccc2C(C)C)C2CN(C(C)=O)C2)c(OC(F)F)n1" is 6.00 to 7.00

Value of pIC50 reported for the compound "CC(=O)N1CC2(CC(N(C(=O)Nc3ccc(C)nc3OC(F)F)c3ccccc3C(C)C)C2)C1" is 6.00 to 7.00

Value of pIC50 reported for the compound "Cc1ccc(NC(=O)N(c2ccccc2C(C)C)C2(C)COC2)c(OC(F)F)n1" is 6.00 to 7.00

Hello, the source for this data is patent US20250034110A1, in case you need it.
